Quick reference: EC50 of the listed items.
# System: recombinant Sirt6 enzyme (Homo sapiens, UniProt Q8N6T7)
# Sequence (Q8N6T7 whole entry): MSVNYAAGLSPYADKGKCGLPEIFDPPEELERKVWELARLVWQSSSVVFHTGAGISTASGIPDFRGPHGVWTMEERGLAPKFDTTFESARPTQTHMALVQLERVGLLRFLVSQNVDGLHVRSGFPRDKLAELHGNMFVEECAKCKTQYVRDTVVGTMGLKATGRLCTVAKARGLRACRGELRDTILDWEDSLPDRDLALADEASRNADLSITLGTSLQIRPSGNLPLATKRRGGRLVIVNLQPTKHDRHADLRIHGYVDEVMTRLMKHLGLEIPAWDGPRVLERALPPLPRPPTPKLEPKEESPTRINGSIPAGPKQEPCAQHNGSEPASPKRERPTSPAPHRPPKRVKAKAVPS
# Test Description: CycLex Sirt6 deacetylase fluorometric assay (cat. CY-1156)
# Experimental Context: increase of Sirt6 deacetylase activity; 1 h, room temperature
Readout Name: EC50 (µM)

1. NNc1nc2c(-c3cccc(C(F)(F)F)c3)nnn2c2ccccc12 [화학식 1]	5
2. COc1ccc(-c2nnn3c2nc(NC(C)c2ccccc2)c2ccccc23)cc1 (centres unmarked) [화학식 2]	2.8
